assay: soluble on expression in E. coli; label from the status in PepcDB or PDB records

>  <Sequence String>
MEAHNVEISTRLTPEMKNQGTIELLYKALQQGDTSTVTKVVASDVEWWFHGPHDCQHMMRLLTGEPPRQVSFRFEPSSVQVVVPGHDCVIAEGWEGSRVYWVHVWKLKDGVVTELREYFNTWLTVTDYSLGAVGWDMGRCTVWESVPRDLARGSLPSLLLAI

>  <soluble on expression in E. coli>
soluble

$$$$
>  <Sequence String>
GPHSMRYYETATSRRGLGEPRYTSVGYVDDKEFVRFDSDAENPRYEPQVPWMEQEGPEYWERITQVAKGQEQWFRVNLRTLLGYYNQSAGGTHTLQRMYGCDVGSDGRLLRGYEQFAYDGCDYIALNEDLRTWTAADMAAQITRRKWEQAGAAEYYRAYLEGECVEWLHRYLKNG

>  <soluble on expression in E. coli>
soluble

$$$$
>  <Sequence String>
GMTTPPARTAKQRIQDTLNRLELDVDAWVSTAGADGGAPYLVPLSYLWDGETFLVATPAASPTGRNLSETGRVRLGIGPTRDLVLVEGTALPLEPAGLPDGVGDTFAEKTGFDPRRLTTSYLYFRISPRRVQAWREANELSGRELMRDGEWLVTD

>  <soluble on expression in E. coli>
soluble

$$$$
>  <Sequence String>
MKASIYDFTLKELSQLLKPSFRAKQLYLWLYAKYKTSFKDMQNNFSKDFIAYLEREFALRTIEITHVRESVDGSKKYLFKSLRDNHTFEAVLLKMKDKKIDAETNAILEREKYTVCVSCQIGCQVGCSFCFTQKGGFVRNLKASEIIQQALLIKEDNNLPLEKALNIVFMGMGEPLNNLDEVCKAIEIFNTGMQISPKRITISTSGVADKIPILAGKNLGVQLAISLHAVDDKTRSSLMPLNKKYNIECVLNEVRKWPLEQRKRVMFEYLLIKDLNDSLDCAKKLLKLLNGIKSKVNLILFNPHEGSKFERPSLENARMFADFLNSKGLLCTIRESKALDIEAACGQLREKKLSQQILEHHHHHH

>  <soluble on expression in E. coli>
soluble

$$$$
>  <Sequence String>
GPLGSMASKKVCIVGSGNWGSAIAKIVGGNAAQLAQFDPRVTMWVFEEDIGGKKLTEIINTQHENVKYLPGHKLPPNVVAVPDVVQAAEDADILIFVVPHQFIGKICDQLKGHLKANATGISLIKGVDEGPNGLKLISEVIGERLGIPMSVLMGANIASEVADEKFCETTIGCKDPAQGQLLKELMQTPNFRITVVQEVDTVEICGALKNVVAVGAGFCDGLGFGDNTKAAVIRLGLMEMIAFAKLFCSGPVSSATFLESCGVADLITTCYGGRNRKVAEAFARTGKSIEQLEKELLNGQKLQGPETARELYSILQHKGLVDKFPLFMAVYKVCYEGQPVGEFIHCLQNHPEHM

>  <soluble on expression in E. coli>
soluble

$$$$

---

assay: soluble on expression in E. coli; label from the status in PepcDB or PDB records

>  <Sequence String>
MALVQALVPREREPKLSILQMDRGDPQHSSHWCPEREKVKLLTLKPRETSKNILINFYRAFNLDKDVFIHQANHPLTVPSSVVMGDNGHTLAEDDKRPCFRVLPCYLERVSSGISISWISAPLPVGAMKHQLLCDLMDLITLSFWLAGQCMSLKATNMQHCKCSIATSDWAIELDRTDYKTLPSEYSILALLQVFAGKNCMDRVLLHVDVNYLKSLP

>  <soluble on expression in E. coli>
soluble

$$$$
>  <Sequence String>
KKILVIGDLIADYYLWGKSERLSPEAPVPVLEVQRESKNLGGAANVANNLISLKAKVFLCGVVGDDLEGEHFISALKARGIDASGILIDKTRCTTLKTRIIAQNQQIARVDKEIKDPLNADLRKKLLDFFTEKIQEIDGVILSDYNKGVLDFELTQAMIALANQHHKLILCDPKGKDYSKYSHASLITPNRTELEHALHLKLDSHANLSKALQILKETYHIAMPLVTLSEQGIAFLEKGELVNCPTIAKEVYDVTGAGDTVIASLTLSLLESMSLKDACEFANAAAAVVVGKMGSALASLEEIALILNQTHPKILSLE

>  <soluble on expression in E. coli>
not soluble

$$$$
>  <Sequence String>
GSCSSKPANTAKGEKGSDKTGKDLELKLSFQEGIAPGESLNEKLDFMEKLGVVGFEPGGGGLAGRVNEIKQALNGRNIKVSAICAGFKGFILSTDPAIRKECMDTMKEIIAAAGELGSTGVIIVPAFNGQVPALPHTMETRDFLCEQFNEMGTFAAQHGTSVIFEPLNRKECFYLRQVADAASLCRDINNPGVRCMGDFWHMTWEETSDMGAFISGGEYLQHVHVASRKRRSMPGEDGDADNYINGFKGLKMIGYNNYVSFECGCQGDRNVVVPAAVKLLREQWEQA

>  <soluble on expression in E. coli>
soluble

$$$$
>  <Sequence String>
MSVDKSPVYEVKAVPVEKVLANDYNPNVVAPPEMKLLELSIWEDGFTMPCVCYYNKEEDNYILVDGYHRYTVLKTSKRIYKRENGLLPIVVIDKDLSNRMSSTIRHNRARGMHNIELMCNIVAELDRAGMSDQWIMKNIGMDRDELLRLKQISGLADLFANREFSIPDEVAPTETERKTL

>  <soluble on expression in E. coli>
not soluble

$$$$
>  <Sequence String>
MGHHHHHHSHMGYIYIVSFGDVEDRLLLADASNVKEIFDLEVRVSTVKADIEEAYNPQRNQYHAGTILSYLSRVVYPDMVRLVALVSFDLYEEGLNFVFGEAQYGGKYAVVSTYRLYHPDERVFFERVFKETNHELGHTFGLKHCPDPYCVMSFSNSIDEVDRKSRDFCPNCRRKLDYVLSYYR

>  <soluble on expression in E. coli>
not soluble

$$$$
>  <Sequence String>
MTYEAFVELVERLWEEVPEDFKRGLQGVHVFPEAKPEPGLEGVWRLGEYLDPGPPSAFGGFEDLGRHIALYYGSFLEVAGEGFDWEAEVWETMLHELRHHLESLAGRDDLVQEDLRRLDAFRRGGPSGEG

>  <soluble on expression in E. coli>
soluble

$$$$
>  <Sequence String>
MSLLEKINSSTCTLRFKNDWLKIFTCPVPSSDFLSFVGVATIDAPQHAVLSLLYDIESATEWVWKTREMRVLQELADDNEGRVVYQVVSAPWPVSDREIISRSTAYKDPETGEVFIKIESLPDFIPETSNCVRVRKLEGAWNILPLSENSCRVVFRLHIEPAGEIPSWLANIAVIDTPYHTLNNMRDMVKREKYKNPVGAPLKESTEGIIRNYNDFITELEHHHHHH

>  <soluble on expression in E. coli>
soluble

$$$$
>  <Sequence String>
MGSDKIHHHHHHMESLSEGTTAGYQQIHDGIIHLVDSARTETVRSVNALMTATYQEIGRRIVEFEQGGEARAAYGAQLIKRLSKDLCLRYKRGFSAKNLRQMRLFYLFFQHVEIHQTMSGELTPLGIPQTPSAEFPSAKIWQTLSAKSFPLPRSTYVRLLSVKNADARSFYEKETLRCGWSVRQLERQIATQFYERTLLSHDKSAMLQQHAPAETHILPQQAIRDPFVLEFLELKDEYSESDFEEALINHLMDFMLELGDDFAFVGRQRRLRIDDNWFRVDLLFFHRRLRCLLIVDLKVGKFSYSDAGQMNMYLNYAKEHWTLPDENPPIGLVLCAEKGAGEAHYALAGLPNTVLASEYKMQLPDEKRLADELVRTQAVLEEGYRRR

>  <soluble on expression in E. coli>
not soluble

$$$$
>  <Sequence String>
MSLKTERILLPVDGSESSYRAAYCAAQAAQLCGAEVLLLHCVDQTEQNGEAPLVDTTLAEDTTTNRHPKQADALGMATANDLIGPVRDILEDHGIRYMERIVEGEPATCIPRVAQNTRCGLIVMGRSGKTPSGRLPVGSVTGRVVGAAHCPVIVAEGHHHHHH

>  <soluble on expression in E. coli>
soluble

$$$$
>  <Sequence String>
MGALGYHPYFESNMIHSMTAFAADEHLTPWGLLACELRSVNHRFLDIVIRLPEELRALEPQLRERVAARVSRGKLDLTVRLSPQEIHTGKLVVNELLLSQLSTLALRLSAQFPALRVTFAELLQIPGVLKGEQIDMATLQGHAVALLDKVLNNFIATREREGLKMQAMIAQRASAIERIVGEVRILIPTIREGQHNKLSARMNHLSYPVDPGRIEQELVLWLQKLDVDEELDRLSSHISELHRILQQREPVGRRLDFLMQEFNREANTLGSKSVDSRTSNATIELKVLIDQIREQVQNIE

>  <soluble on expression in E. coli>
soluble

$$$$
>  <Sequence String>
MGSDKIHHHHHHACSISYKFNGSSIDYTKVKTISFENFPNRSAGFVWGPMENMFNTALQDIYMQQTRLKQVKRSGDLQLSGEITNYEAFNKGIGSDGYSSMVELRMTVRVNFVNSSNPTENMNGQQFSASREYNSNQQLSAVQDELVNQMIKEIVEQIFNATVANW

>  <soluble on expression in E. coli>
not soluble

$$$$
>  <Sequence String>
MGSDKIHHHHHHAQESLFLKDPSTKNKLLQLDLDVGTCFDLAYRGKGNMYTAMSDRKSVFPAINLRLQHFFSRKWGWYTNIRLGIPVKYRRDCYTELVHAVEADYYVNNLIPGTQKPDVNPCLDFGVAYRFENSHWAFYPRLGIGVNSISYQRVCAELKKKGGNELYKIEYRGDDESNYGSESIDAFILSAGITANYKLSRNCFLLLNVNYIQPLGRFTYRKYVTDLYTGEKVERGVYKSSTFARDLNVSVGFGFPFYLGRKTNRKSSHRERTRQLMEQKRKTYGLFPGNK

>  <soluble on expression in E. coli>
not soluble

$$$$
